Target: Delta-type opioid receptor (Homo sapiens)
Sequence (P41143 whole entry): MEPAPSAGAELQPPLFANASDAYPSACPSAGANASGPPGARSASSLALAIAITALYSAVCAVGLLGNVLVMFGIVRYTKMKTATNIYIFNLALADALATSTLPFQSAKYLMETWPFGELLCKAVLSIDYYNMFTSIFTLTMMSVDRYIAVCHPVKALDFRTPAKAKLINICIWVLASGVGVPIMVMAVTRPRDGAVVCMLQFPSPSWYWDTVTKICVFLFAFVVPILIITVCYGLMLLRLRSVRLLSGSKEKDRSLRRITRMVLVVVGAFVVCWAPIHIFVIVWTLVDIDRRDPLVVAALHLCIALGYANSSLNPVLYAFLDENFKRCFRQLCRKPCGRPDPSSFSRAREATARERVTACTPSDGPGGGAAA
pKi: −log10 of the molar value.
Measured endpoint: pKi

[[record]]
compound_structure = "CC(C)C[C@@H](NC(=O)[C@H](Cc1ccccc1)NC(=O)CNC(=O)[C@@H](C)NC(=O)[C@@H](N)Cc1ccc(C(=O)O)cc1)C(=O)O"
recorded_value = 5.96

[[record]]
compound_structure = "CC(C)C[C@H](NC(=O)[C@H](Cc1ccccc1)NC(=O)CNC(=O)[C@@H](CO)NC(=O)[C@@H](N)Cc1cccc(C(N)=O)c1)C(=O)N[C@H](C(=O)O)[C@@H](C)O"
recorded_value = 7.38

[[record]]
compound_structure = "Cc1cc(C(N)=O)cc(C)c1C[C@H](N)C(=O)N[C@H](C)C(=O)NCC(=O)N[C@@H](Cc1ccccc1)C(=O)N[C@H](CC(C)C)C(=O)O"
recorded_value = 9.11

